Exercise: for every item that follows, state its recorded IC50.
- Tested on: HTC-C3;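 further: inhibition of cell growth, read out with a cell viability assay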
- ASSAY_NOTES: cells
- Type: functional, cell-based
- TEST_CONTEXT: Homo sapiens
- Description: SANGER: Inhibition of human HTC-C3 cell growth in a cell viability assay.
Form entry: value (nM) — number only.

Q: Param item = "Cn1c(=O)n(-c2ccc(C(C)(C)C#N)cc2)c2c3cc(-c4cnc5ccccc5c4)ccc3ncc21" ; retrieve measured IC50.
A: 117

Q: // IC50 lookup, key: "Fc1cc(-c2cc[nH]/c(=N/c3ccc(-n4cnc(N5CCOCC5)n4)cc3)n2)cc(N2CCOCC2)c1"
A: 1240

* * *

- System: Daoy;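 further: daoy cell growth inhibition, read out as cell viability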
- ASSAY_NOTES: cells
- Assay type: functional, cell-based
- TEST_CONTEXT: Homo sapiens
- Description: SANGER: Inhibition of human Daoy cell growth in a cell viability assay.
ENDPOINT_NAME: IC50 (nM)
Field format: number, assumed nM, no unit text.

Q: Item CC[C@@]1(O)C(=O)OCc2c1cc1n(c2=O)Cc2cc3ccccc3nc2-1 [CAMPTOTHECIN] with Daoy - IC50?
A: 0.481

Q: Quick check: IC50 on Daoy, item C/C=C(/C)C(=O)O[C@H]1C(C)=C2[C@H]([C@@H]1OC(=O)CCCCCCC)[C@@](C)(OC(C)=O)C[C@H](OC(=O)CCC)[C@@]1(O)[C@H]2OC(=O)[C@@]1(C)O [THAPSIGARGIN] ?
A: 5.34

Q: Recall the recorded IC50 for Cn1c(=O)n(-c2ccc(C(C)(C)C#N)cc2)c2c3cc(-c4cnc5ccccc5c4)ccc3ncc21 [DACTOLISIB] with Daoy and state it.
A: 36.7
